Values from the CheMixHub ionic liquid set

Reported electrical conductivity values for a set of compounds
# PROCEDURE TEXT: xn = mol fraction of the nth substance listed
# CONDITION: 293.15 K; 101 kPa; x1 = 1.98e-06; x2 = 0
State just the number; it will be interpreted in S/m.

Example results:
// query Entry CCCCCCCCCCCCCCCC[n+]1ccccc1.O=C([O-])C(O)c1ccccc1 + NCC(=O)NCC(=O)O + O has what electrical conductivity?
// result 0.001

// query Entry CCCCCCCCCCCCCCCC[n+]1ccccc1.O=C([O-])C(O)c1ccccc1 + NCC(=O)O + O has what electrical conductivity?
// result 0.001

// query Entry CCCCCCCCCCCCCCCC[n+]1ccccc1.O=C([O-])C(O)c1ccccc1 + C[C@H](N)C(=O)O + O has what electrical conductivity?
// result 0.001

// query Entry CCCCCCCCCCCCCCCC[n+]1ccccc1.O=C([O-])C(O)c1ccccc1 + CC(C)C[C@H](N)C(=O)O + O has what electrical conductivity?
// result 0.001

Now for a further compound.
// query Entry CCCCCCCCCCCCCCCC[n+]1ccccc1.O=C([O-])C(O)c1ccccc1 + CC(C)[C@H](N)C(=O)O + O has what electrical conductivity?
// result 0.001

---

Reported electrical conductivity values for a set of molecules
# PROCEDURE TEXT: xn = mol fraction of the nth substance listed
# CONDITION: 308.15 K; 101 kPa; x1 = 1.207e-05; x2 = 0
State just the number; it will be interpreted in S/m.

Example results:
// query Entry CCCCCCCCCCCCCCCC[n+]1ccccc1.O=C([O-])C(O)c1ccccc1 + NCC(=O)O + O has what electrical conductivity?
// result 0.0071

// query Entry CCCCCCCCCCCCCCCC[n+]1ccccc1.O=C([O-])C(O)c1ccccc1 + CC(C)[C@H](N)C(=O)O + O has what electrical conductivity?
// result 0.0071

// query Entry CCCCCCCCCCCCCCCC[n+]1ccccc1.O=C([O-])C(O)c1ccccc1 + NCC(=O)NCC(=O)O + O has what electrical conductivity?
// result 0.0071

// query Entry CCCCCCCCCCCCCCCC[n+]1ccccc1.O=C([O-])C(O)c1ccccc1 + CC(C)C[C@H](N)C(=O)O + O has what electrical conductivity?
// result 0.0071

New cases:
// query Entry CCCCCCCCCCCCCCCC[n+]1ccccc1.O=C([O-])C(O)c1ccccc1 + C[C@H](N)C(=O)O + O has what electrical conductivity?
// result 0.0071

---

Reported electrical conductivity values for a set of compounds
# PROCEDURE TEXT: xn = mol fraction of the nth substance listed
# CONDITION: 313.15 K; 101 kPa; x1 = 1.98e-06; x2 = 0
State just the number; it will be interpreted in S/m.

// query Entry CCCCCCCCCCCCCCCC[n+]1ccccc1.O=C([O-])C(O)c1ccccc1 + NCC(=O)NCC(=O)O + O has what electrical conductivity?
// result 0.0016

New cases:
// query Entry CCCCCCCCCCCCCCCC[n+]1ccccc1.O=C([O-])C(O)c1ccccc1 + C[C@H](N)C(=O)O + O has what electrical conductivity?
// result 0.0016

// query Entry CCCCCCCCCCCCCCCC[n+]1ccccc1.O=C([O-])C(O)c1ccccc1 + CC(C)C[C@H](N)C(=O)O + O has what electrical conductivity?
// result 0.0016

// query Entry CCCCCCCCCCCCCCCC[n+]1ccccc1.O=C([O-])C(O)c1ccccc1 + CC(C)[C@H](N)C(=O)O + O has what electrical conductivity?
// result 0.0016

// query Entry CCCCCCCCCCCCCCCC[n+]1ccccc1.O=C([O-])C(O)c1ccccc1 + NCC(=O)O + O has what electrical conductivity?
// result 0.0016
